biological target: APE1 (Homo sapiens); construct: made in house; test: Fluorogenic kinetic qHTS APE1 incision assay (primary screen and retest of cherrypicked samples); format: biochemical; conditions: retest of cherrypicked sample; read-out: APE1 Retest IC50;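 also: purified APE1 cleaving a fluorophore/dark-quencher labelled 17-mer duplex DNA bearing a tetrahydrofuran AP site, fluorescence rise followed kinetically over the first 2 min, inhibition normalized to controls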
Sequence (P27695 whole entry): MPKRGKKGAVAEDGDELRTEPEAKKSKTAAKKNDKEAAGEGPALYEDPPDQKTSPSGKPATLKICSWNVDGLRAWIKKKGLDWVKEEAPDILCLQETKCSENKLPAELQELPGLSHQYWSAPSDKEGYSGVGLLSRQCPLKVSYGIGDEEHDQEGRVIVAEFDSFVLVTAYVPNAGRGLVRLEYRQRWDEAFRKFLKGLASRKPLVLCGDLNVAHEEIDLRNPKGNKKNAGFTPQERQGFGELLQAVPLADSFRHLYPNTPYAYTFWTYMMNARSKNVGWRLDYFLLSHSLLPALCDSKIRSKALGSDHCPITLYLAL
So I've got a bunch of compounds here, and I need their pIC50 values.
Scale: pIC50 equals -log10([C]), with [C] in mol/L.

q: Sample O=C1NN(c2ccccc2)C(=O)/C1=C/c1ccc(-c2ccc(Cl)c(C(=O)O)c2)o1 [MLS000682903] — what was its pIC50?
a: 4.81

q: Sample O=C(Nc1ccc2oc(-c3ccccc3F)nc2c1)c1ccc([N+](=O)[O-])o1 [MLS001194759] — what was its pIC50?
a: 5.49

q: Sample O=C(O)c1ccc(-n2cccc2/C=C2/NC(=O)N(c3ccccc3)C2=O)cc1 [MLS000778414] — what was its pIC50?
a: 5.40

q: Sample O=S(=O)(Nc1ccccc1)c1cccc2nsnc12 [MLS000999698] — what was its pIC50?
a: 4.64

q: Sample CCNc1nc(NCC)n2c(SCC(=O)Nc3cccc(F)c3)nnc2n1 [MLS001234358] — what was its pIC50?
a: 4.94

q: Sample O=C(NC1CC1)c1cc(-c2ccco2)nc2ccccc12 [MLS001005620] — what was its pIC50?
a: 5.36

q: Sample O=C1C=CC2=C3c4cc(O)c(O)cc4CC3(O)COC2=C1O (stereo not drawn) [NCGC00095664] — what was its pIC50?
a: 7.00

q: Sample CN(CC(=O)Nc1c(Cl)cccc1Cl)C(=O)c1cccc(-n2cccc2)c1 [MLS001079471] — what was its pIC50?
a: 4.94

q: Sample COc1cccc(NC(=O)CN(C)C(=O)c2cc(-c3ccco3)nc3ccccc23)c1 [MLS001156783] — what was its pIC50?
a: 4.99
